target: T1, Anti-PSMA Fab (SEQ ID NOs: 19, 20); assay: phage ELISA; biotinylated PSMA Fab on neutravidin plate, bound phage detected with anti-M13 HRP
T1 construct: Biotinylated Fab captured on neutravidin coated plates in the phage ELISA; also called 006 PSMA Fab
ENDPOINT LABEL: Phage binding ELISA, Anti-PSMA Fab signal
When you answer, write just the number.

BINDER: WDKWCIPEWMCVTQ (Clonal phage of the peptide-180 library) [Phage-2127]
RECORDED MEASUREMENT: 1.71
//
BINDER: YAKWCIPEWMCAVS (Clonal phage of the peptide-180 library) [Phage-2119]
RECORDED MEASUREMENT: 1.72
//
BINDER: EIKWCVPQWMCENQ (Clonal phage of the peptide-180 library) [Phage-2117]
RECORDED MEASUREMENT: 1.72

Let us examine a further case.
Task: Hello, please tell me recorded Phage binding ELISA, Anti-PSMA Fab signal for this one: VTAWCIPEWMCVGV (Clonal phage of the peptide-180 library) [Phage-2122]
Result: 1.71

Source of measurements: patent US20260242478A1
